# credit: ChEMBL document CHEMBL4823260

ASSAY_SYSTEM: Transient receptor potential cation channel subfamily M member 5 (Homo sapiens, UniProt Q9NZQ8)
MEASUREMENT_DESCRIPTION: Agonist activity at human TRPM5 expressed in CHO-K1 cells maintained at 80 mV final holding potential by QPatch HTX assay
Type: cell-based
OUTCOME_MEASURE: EC50 (µM)
Numbers only, in µM.

Query: Quick one: EC50 of "Cn1c(Cl)cnc1CNc1ccc(Cl)cc1F" ?
Response: 6.03

* * *

ASSAY_SYSTEM: Transient receptor potential cation channel subfamily M member 5 (Homo sapiens, UniProt Q9NZQ8)
Sequence (Q9NZQ8 whole entry): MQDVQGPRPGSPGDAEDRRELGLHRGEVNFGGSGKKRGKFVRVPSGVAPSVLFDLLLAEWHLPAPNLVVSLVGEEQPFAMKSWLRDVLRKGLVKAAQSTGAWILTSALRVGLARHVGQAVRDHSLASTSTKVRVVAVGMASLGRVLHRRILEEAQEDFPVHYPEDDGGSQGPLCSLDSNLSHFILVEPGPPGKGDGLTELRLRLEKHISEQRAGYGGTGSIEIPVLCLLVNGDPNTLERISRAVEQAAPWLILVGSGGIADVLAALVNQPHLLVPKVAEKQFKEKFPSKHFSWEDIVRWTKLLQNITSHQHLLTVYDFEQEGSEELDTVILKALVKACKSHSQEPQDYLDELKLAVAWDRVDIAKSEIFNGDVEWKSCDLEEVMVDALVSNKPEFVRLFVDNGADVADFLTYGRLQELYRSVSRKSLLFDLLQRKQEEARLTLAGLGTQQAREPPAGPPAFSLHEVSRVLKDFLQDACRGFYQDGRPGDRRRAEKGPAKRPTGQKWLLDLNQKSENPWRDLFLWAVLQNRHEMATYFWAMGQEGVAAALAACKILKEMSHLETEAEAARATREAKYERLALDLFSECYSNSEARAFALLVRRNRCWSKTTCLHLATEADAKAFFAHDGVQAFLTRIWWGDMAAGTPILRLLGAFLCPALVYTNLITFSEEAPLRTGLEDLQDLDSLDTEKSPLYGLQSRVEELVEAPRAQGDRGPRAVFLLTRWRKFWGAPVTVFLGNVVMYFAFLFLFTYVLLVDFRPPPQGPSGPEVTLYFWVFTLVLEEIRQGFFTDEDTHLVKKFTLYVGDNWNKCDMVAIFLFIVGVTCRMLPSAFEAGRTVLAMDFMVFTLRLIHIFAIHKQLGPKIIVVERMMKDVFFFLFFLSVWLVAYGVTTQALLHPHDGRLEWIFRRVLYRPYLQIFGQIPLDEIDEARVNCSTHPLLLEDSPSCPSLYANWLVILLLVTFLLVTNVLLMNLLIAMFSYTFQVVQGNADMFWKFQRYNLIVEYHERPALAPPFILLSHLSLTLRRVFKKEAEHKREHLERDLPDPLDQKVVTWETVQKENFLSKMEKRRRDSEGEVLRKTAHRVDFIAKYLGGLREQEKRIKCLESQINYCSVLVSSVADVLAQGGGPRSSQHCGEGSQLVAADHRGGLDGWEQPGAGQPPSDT
MEASUREMENT_DESCRIPTION: Agonist activity at human TRPM5 expressed in CHO-K1 cells maintained at 80 mV final holding potential by syncroPatch assay
Type: cell-based
Please go through the items and note down their pEC50.
One number for each entry, as −log10 of the molar value.

# annotated cases, reported pEC50 shown
Cn1c(Cl)cnc1CNc1cc2sncc2cc1Cl 7.95
Cc1cc2cnsc2cc1NCc1ncc(Cl)s1 7.75
CN(Cc1ncc(Cl)n1C)c1ccc2sncc2c1 6.80
Cn1ccnc1CNc1ccc2sncc2c1 5.29
CCN(Cc1ncc(Cl)n1C)c1ccc2sncc2c1 6.33

Query: Look up pEC50 for this compound: "CC(C)N(Cc1ncc(Cl)n1C)c1ccc2sncc2c1"
Response: 5.29
